Biological target: Sentrin-specific protease 7 (Homo sapiens)
Sequence (Q9BQF6 whole entry): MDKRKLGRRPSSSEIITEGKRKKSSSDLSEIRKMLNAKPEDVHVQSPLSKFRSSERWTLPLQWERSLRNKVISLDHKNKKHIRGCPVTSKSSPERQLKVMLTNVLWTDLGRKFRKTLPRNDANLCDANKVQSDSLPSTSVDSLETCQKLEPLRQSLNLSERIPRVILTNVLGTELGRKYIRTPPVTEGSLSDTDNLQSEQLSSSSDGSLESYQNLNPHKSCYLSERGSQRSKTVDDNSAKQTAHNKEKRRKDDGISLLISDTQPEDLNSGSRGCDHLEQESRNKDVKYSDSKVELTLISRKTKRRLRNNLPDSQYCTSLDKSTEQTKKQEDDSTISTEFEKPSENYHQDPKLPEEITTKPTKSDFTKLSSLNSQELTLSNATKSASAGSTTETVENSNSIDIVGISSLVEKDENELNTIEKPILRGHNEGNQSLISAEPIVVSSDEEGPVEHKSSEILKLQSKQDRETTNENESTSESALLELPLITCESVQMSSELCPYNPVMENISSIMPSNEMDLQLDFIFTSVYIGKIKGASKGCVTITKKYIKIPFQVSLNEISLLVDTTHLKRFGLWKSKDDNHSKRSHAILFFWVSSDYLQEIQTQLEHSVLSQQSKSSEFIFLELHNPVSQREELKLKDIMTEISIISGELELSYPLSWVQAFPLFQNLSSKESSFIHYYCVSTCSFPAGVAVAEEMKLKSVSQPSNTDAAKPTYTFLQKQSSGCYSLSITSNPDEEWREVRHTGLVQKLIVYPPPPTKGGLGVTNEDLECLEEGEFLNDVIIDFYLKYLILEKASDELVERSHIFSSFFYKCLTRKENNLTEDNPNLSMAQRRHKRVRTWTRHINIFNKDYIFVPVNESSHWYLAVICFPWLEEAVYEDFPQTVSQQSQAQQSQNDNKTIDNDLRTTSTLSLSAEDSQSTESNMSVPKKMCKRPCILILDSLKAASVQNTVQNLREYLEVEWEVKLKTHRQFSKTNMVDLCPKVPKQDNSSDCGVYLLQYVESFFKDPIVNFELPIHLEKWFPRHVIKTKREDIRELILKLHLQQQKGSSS
Assay: inhibition of human SENP7 cleavage activity – biochemical, luminescence, SAR follow-up (AID 504497)
Format: functional
The source made the active and inactive calls. Rule as the data show it: actives have a measured IC50 and inactives only a lower limit.
Use one of these outcomes when replying: active, inactive

SMILES RECORD	ASSIGNED LABEL
CCN(CC)c1ccc(/C=N/Nc2nc(N3CCCC3)nc(N3CCCC3)n2)cc1	inactive
COc1ccc(CCC(=O)Nc2ccc(-c3noc(/C=C/c4ccccc4)n3)cc2)cc1	inactive
O=C(CCc1ccccc1)NNc1cc(N2CCCCC2)nc(N2CCCCC2)n1	active

What outcome does the record of this test show for FC(F)(F)c1ccc(N/N=C/c2c[nH]c3ccccc23)cc1 ?
inactive
